experiment: self-splicing fitness, log relative to wild type (ln ratio); higher = more splicing; Tetrahymena group I intron in knt gene, E. coli kanamycin selection, DiMSum; sequences stand for … in CUCUCU…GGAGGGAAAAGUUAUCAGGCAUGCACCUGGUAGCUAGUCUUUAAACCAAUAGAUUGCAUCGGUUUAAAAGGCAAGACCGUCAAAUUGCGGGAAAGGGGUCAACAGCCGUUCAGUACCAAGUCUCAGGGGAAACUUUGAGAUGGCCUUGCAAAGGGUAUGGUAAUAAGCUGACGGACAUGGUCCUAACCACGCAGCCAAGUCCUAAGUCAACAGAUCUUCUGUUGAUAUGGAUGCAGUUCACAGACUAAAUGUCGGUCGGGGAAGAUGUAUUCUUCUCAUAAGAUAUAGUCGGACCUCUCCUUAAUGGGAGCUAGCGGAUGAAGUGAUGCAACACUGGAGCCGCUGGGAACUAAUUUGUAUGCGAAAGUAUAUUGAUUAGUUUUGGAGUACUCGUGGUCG; conditions: 37 °C;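 note: selection with 25 µg/mL kanamycin versus none on LB agar overnight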
So basically: self-splicing fitness (ln) at -0.9 or higher? That is true. Lower than -0.9? That is false.

Observe how each entry below is paired with its result.
polymer_sequence=GAGUAGCAAUAUUACGGAAA discrete_label=false
polymer_sequence=GUACAGCAAUAUUACGGGAG discrete_label=false
polymer_sequence=CGCUAGCAAUAUUACGAGUG discrete_label=false
polymer_sequence=UUCAAGCAAUAUUACGUUGA discrete_label=false
polymer_sequence=UUUAAGCAAUAUUACGGCUG discrete_label=true
polymer_sequence=CAAUAGCAAUAUUACGACUG discrete_label=true
polymer_sequence=AAAAAGCAAUAUUACGAAGG discrete_label=false
polymer_sequence=UGUUAGCAAUAUUACGAUCG discrete_label=true
polymer_sequence=AGGUAGCAAUAUUACGUUGU discrete_label=false
polymer_sequence=UUCGAGCAAUAUUACGCGUU discrete_label=false

Request: Decide: is the reported value of self-splicing fitness (ln) for `UUUCAGCAAUAUUACGACUU` equal to or greater than -0.9?
Response: true

Request: What about `CUUCAGCAAUAUUACGUCUC` ?
Response: false

Request: What about `GUCCAGCAAUAUUACGUCCG` ?
Response: true

Request: What about `AUUUAGCAAUAUUACGAACG` ?
Response: true

Request: What about `UAUGAGCAAUAUUACGAGAU` ?
Response: false

* * *

assay: self-splicing fitness, log relative to wild type (ln ratio); higher = more splicing; Tetrahymena group I intron in knt gene, E. coli kanamycin selection, DiMSum; sequences stand for … in CUCUCU…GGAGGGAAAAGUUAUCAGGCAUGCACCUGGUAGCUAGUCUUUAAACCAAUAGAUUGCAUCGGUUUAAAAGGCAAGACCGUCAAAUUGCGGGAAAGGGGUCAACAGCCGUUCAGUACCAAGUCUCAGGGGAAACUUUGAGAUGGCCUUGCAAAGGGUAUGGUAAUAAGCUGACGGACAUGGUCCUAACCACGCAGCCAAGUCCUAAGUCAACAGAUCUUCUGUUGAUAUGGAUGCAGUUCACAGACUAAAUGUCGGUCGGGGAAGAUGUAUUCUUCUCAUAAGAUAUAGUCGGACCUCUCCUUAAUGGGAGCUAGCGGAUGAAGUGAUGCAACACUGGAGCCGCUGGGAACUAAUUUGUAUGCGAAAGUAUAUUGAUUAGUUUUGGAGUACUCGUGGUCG; conditions: 30 °C
So basically: self-splicing fitness (ln) at -3 or higher? That is Yes. Lower than -3? That is No.

Observe how each entry below is paired with its result.
polymer_sequence=AGGCAGCAAUAUUACGUUAC discrete_label=No
polymer_sequence=ACUAAGCAAUAUUACGGCGC discrete_label=Yes
polymer_sequence=GAGCAGCAAUAUUACGUAAA discrete_label=Yes

Request: Decide: is the reported value of self-splicing fitness (ln) for `GACAAGCAAUAUUACGCUAG` equal to or greater than -3?
Response: Yes

Request: What about `CUUCAGCAAUAUUACGUGUA` ?
Response: No

Request: What about `UGCCAGCAAUAUUACGGAGA` ?
Response: Yes

Request: What about `UUCCAGCAAUAUUACGGAUG` ?
Response: Yes

* * *

Kindly state self-splicing fitness (ln) for each of the entries shown.
assay: self-splicing fitness, log relative to wild type (ln ratio); higher = more splicing; Tetrahymena group I intron in knt gene, E. coli kanamycin selection, DiMSum; sequences stand for … in CUCUCU…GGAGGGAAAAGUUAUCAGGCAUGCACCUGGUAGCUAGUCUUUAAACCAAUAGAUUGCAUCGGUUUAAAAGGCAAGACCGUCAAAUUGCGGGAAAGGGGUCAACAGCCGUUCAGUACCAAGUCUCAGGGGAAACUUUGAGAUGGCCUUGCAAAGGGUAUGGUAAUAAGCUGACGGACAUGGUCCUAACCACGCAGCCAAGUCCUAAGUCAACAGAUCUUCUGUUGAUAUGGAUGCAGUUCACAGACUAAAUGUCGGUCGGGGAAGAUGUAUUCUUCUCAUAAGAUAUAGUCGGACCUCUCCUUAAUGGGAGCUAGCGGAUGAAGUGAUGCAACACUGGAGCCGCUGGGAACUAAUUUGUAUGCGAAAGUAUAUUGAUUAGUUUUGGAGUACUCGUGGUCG; details: 30 °C
Answers are plain numbers.

// solved cases for self-splicing fitness (ln) follow
polymer_sequence=GUUGAGCAAUAUUACGUUUU value=-2.91
polymer_sequence=UUGCAGCAAUAUUACGCGGA value=-1.29
polymer_sequence=CUAAAGCAAUAUUACGCCUA value=-3.27
polymer_sequence=AAAAAGCAAUAUUACGGUGU value=-2.13
polymer_sequence=UGCGAGCAAUAUUACGACUG value=-0.639

Hi team, please reply with self-splicing fitness (ln) for each item in this list.
1. UCGGAGCAAUAUUACGACUA
2. UAAGAGCAAUAUUACGAGCC
3. GGCCAGCAAUAUUACGCACA
4. CUGAAGCAAUAUUACGAUCU
5. AACGAGCAAUAUUACGACCG
6. GCGUAGCAAUAUUACGGAAA
7. AAACAGCAAUAUUACGCAUA

Response:
[-1.22, -3.56, -0.344, -3.3, -3.46, -3.29, -2]

* * *

assay: self-splicing fitness, log relative to wild type (ln ratio); higher = more splicing; Tetrahymena group I intron in knt gene, E. coli kanamycin selection, DiMSum; sequences stand for … in CUCUCU…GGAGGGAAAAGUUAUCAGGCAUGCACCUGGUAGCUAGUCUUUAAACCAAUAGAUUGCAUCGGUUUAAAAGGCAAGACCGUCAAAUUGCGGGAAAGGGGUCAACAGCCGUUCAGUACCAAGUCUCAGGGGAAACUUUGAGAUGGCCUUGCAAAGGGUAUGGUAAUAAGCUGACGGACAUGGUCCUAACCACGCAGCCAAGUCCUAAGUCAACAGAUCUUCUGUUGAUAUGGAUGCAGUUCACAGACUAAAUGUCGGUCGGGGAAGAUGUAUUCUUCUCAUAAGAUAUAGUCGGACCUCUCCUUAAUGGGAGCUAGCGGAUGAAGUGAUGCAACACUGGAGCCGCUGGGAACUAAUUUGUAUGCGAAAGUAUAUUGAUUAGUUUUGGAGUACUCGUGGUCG; settings: 30 °C
Kindly state self-splicing fitness (ln) for each of the entries shown.
Numbers only.

// solved cases for self-splicing fitness (ln) follow
polymer_sequence=CCGAAGCAAUAUUACGGUCU value=-2.93
polymer_sequence=ACGUAGCAAUAUUACGAGAG value=-2.93
polymer_sequence=UGCGAGCAAUAUUACGGGGC value=-3.09
polymer_sequence=UCUGAGCAAUAUUACGUGCG value=-3
polymer_sequence=CAAUAGCAAUAUUACGUCAA value=-3.04

Hi team, please reply with self-splicing fitness (ln) for each item in this list.
1. CCUGAGCAAUAUUACGUAAG
2. GUCGAGCAAUAUUACGGAAC

Response:
1. -3.03
2. -3.01

* * *

Kindly state self-splicing fitness (ln) for each of the entries shown.
experiment: self-splicing fitness, log relative to wild type (ln ratio); higher = more splicing; Tetrahymena group I intron in knt gene, E. coli kanamycin selection, DiMSum; sequences stand for … in CUCUCU…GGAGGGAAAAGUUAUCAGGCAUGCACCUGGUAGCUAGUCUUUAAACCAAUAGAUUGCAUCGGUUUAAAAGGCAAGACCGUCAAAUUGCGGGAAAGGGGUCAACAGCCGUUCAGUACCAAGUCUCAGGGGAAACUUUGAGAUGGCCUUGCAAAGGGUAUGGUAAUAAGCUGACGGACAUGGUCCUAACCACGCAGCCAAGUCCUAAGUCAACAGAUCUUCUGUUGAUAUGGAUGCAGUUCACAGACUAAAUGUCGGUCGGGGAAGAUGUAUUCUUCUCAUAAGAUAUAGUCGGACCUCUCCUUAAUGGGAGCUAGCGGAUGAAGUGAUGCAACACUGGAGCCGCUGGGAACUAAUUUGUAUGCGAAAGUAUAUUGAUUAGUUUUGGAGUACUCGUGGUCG; settings: 37 °C
One number for each entry.

// solved cases for self-splicing fitness (ln) follow
polymer_sequence=UAUCAGCAAUAUUACGCUCU value=0.416
polymer_sequence=GGCUAGCAAUAUUACGUAUG value=-0.678
polymer_sequence=CAGUAGCAAUAUUACGCGUG value=-1.86
polymer_sequence=GUCCAGCAAUAUUACGUUAA value=-0.751
polymer_sequence=UGCCAGCAAUAUUACGCCCU value=-0.167
polymer_sequence=GUUAAGCAAUAUUACGUCUC value=-0.514
polymer_sequence=GUUUAGCAAUAUUACGUUGA value=-2
polymer_sequence=AGGCAGCAAUAUUACGUGCC value=-2.73
polymer_sequence=CAACAGCAAUAUUACGCGUG value=-3.31

We next turn to a different sequence, shown below.
Request: Request the reported self-splicing fitness (ln) associated with `GAGCAGCAAUAUUACGUCGG`
Response: -3.07
